Cited source for all entries: patent US20220388962A1

pIC50 data for TDP-43 (Homo sapiens) follow.
pIC50: −log10 of the molar value. Counter-ions that a name gives are not always drawn.
experimental endpoint: pIC50

Before answering, review these 6 worked examples.
>  <compound>
CCN(CC)CC(O)CNCCCNc1cc(-c2ccc(OC)cc2)nc2ccccc12 (centres unmarked) [Example 52, dihydrochloride]

>  <pIC50>
6.77

$$$$
>  <compound>
COc1ccc(-c2cc(NCCCN(CCCN(C)C)CC3CCNCC3)c3ccccc3n2)cc1

>  <pIC50>
6.92

$$$$
>  <compound>
COc1ccc(-c2cc(NCCCNCCCNc3ccncc3)c3ccccc3n2)cc1 [Example 63, dihydrochloride]

>  <pIC50>
7.00

$$$$
>  <compound>
NCCCNc1cc(-c2ccc(C3CCNCC3)cc2)nc2ccccc12

>  <pIC50>
6.96

$$$$
>  <compound>
COc1ccc(-c2cc(NCCCN(C)CCCN3CCCCC3)c3ccccc3n2)cc1 [Example 5, trihydrochloride]

>  <pIC50>
6.62

$$$$
>  <compound>
COc1ccc(-c2cc(NCCCNCCCNS(C)(=O)=O)c3ccccc3n2)cc1 [Example 66, hydrochloride]

>  <pIC50>
5.85

$$$$

[A] COc1ccc(-c2cc(NCCCNCCCN)c3ccccc3n2)cc1 [Example 8, trihydrochloride]
[B] CC(C)C(N)C(=O)NC(C(=O)NC(C(=O)N1CCN(c2ccc(-c3cc(NCCCN(C)C)c4ccccc4n3)cc2)CC1)C(C)C)C(C)C (centres unmarked)
Of the two listed items, which has the higher pIC50? First: A Second: B I would appreciate it if you answered with the label of your choice.
A
(A: 7.10, B: 6.62)
